Molecular target: T1, PUF4 RNA-binding domain (Saccharomyces cerevisiae, UniProt P25339 537-888)
T1 sequence: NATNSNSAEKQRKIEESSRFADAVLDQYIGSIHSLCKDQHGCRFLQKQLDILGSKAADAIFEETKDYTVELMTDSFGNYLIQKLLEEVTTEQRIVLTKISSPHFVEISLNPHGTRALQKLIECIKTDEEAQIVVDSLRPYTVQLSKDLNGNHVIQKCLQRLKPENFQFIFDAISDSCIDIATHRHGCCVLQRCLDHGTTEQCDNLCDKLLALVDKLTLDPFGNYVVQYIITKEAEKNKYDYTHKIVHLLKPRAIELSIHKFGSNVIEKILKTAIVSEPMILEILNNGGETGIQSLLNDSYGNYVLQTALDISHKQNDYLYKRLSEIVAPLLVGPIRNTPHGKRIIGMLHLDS
Test: Mg; RNA-MaP; 20 mM Na-HEPES pH 7.4, 30 mM KOAc, 0.75 mM MgCl2, 0.1% Tween-20, 5% glycerol, 0.1 mg/mL BSA, 2 mM DTT; 25 C; 0.0125-409.6 nM protein
Conditions: tags: N-His6-TEV cleaved; C-SNAP kept, Cy3B-labelled; label: tethered on chip by stalled RNA polymerase
property measured: Kd (nM)
Note: unit nM is implicit; provide only the numeric part.

Below, 2 binders whose answers are already recorded.
binder	Kd / nM
Ic_S2_P4E.1_K4.1_C4.1_H4.1_A4.1_[T5A]_F4.1_[T8A]_[A9C]_T4.1 (ssRNA) RNA: UUUGAUUAAUAUGAUAUCGUUCUUUCUUGUAAAUACUUCUUUCUCGAUAUCAUAUUAAUCUUU	23.4
Ib_S2_P5E.1_K5.1_C5.1_H5.1_[T1A]_[G2T]_A5.1_F5.1_T5.1 (ssRNA) RNA: UUUGAUUAAUAUGAUAUCGUUCUUUCUAUUAUUAUUAUUCUUUCUCGAUAUCAUAUUAAUCUUU	1610

INPUT: # query: Kd of entry UCUCUUUUUAUAUAUAUUUCUCUU (ssRNA) [Id_ii_S1_P3E.3_K3.2_C3.2_[C-2T]_H3.2_A3.1_F3.1_T3.2_[A10T]]
OUTPUT: 457
